# protocol-description: Equilibrium solubility of Compound 1 in common buffers
# Type: physicochemical
# condition-notes: pH 4.57, aqueous buffer, thermodynamic from solid; acetic acid/sodium acetate 200 mM, pH (Buffer) 5.00, pH (Meas.) 4.57, room temperature 24 h; read-out: Avg. c(Compound 1, FB), equilibrium solubility
metric: solubility thermodynamic at 24 h (µg/mL)
Numbers only, in µg/mL.

Fill in: solubility thermodynamic at 24 h of C[C@@H](NC(=O)N1C(=O)[C@H](Cc2ccnc(N)c2)[C@H]1C(=O)O)C1CCCCC1 is ___
7480

---

# protocol-description: Equilibrium solubility of Compound 1 in common buffers
# Assay type: physicochemical
# condition-notes: pH 6.33, aqueous buffer, thermodynamic from solid; sodium phosphate 200 mM, pH (Buffer) 7.00, pH (Meas.) 6.33, room temperature 24 h; read-out: Avg. c(Compound 1, FB), equilibrium solubility
metric: solubility thermodynamic at 24 h (mg/mL)
Answers are plain numbers, in mg/mL.

Consider the compound C[C@@H](NC(=O)N1C(=O)[C@H](Cc2ccnc(N)c2)[C@H]1C(=O)O)C1CCCCC1 and give its measured solubility thermodynamic at 24 h.
12

---

# protocol-description: Equilibrium solubility of Compound 1 in common buffers
# Format: physicochemical
# condition-notes: citrate buffer, pH 3.74, aqueous buffer, thermodynamic from solid; citric acid/sodium 200 mM, pH (Buffer) 4.00, pH (Meas.) 3.74, room temperature 24 h; read-out: Avg. c(Compound 1, FB), equilibrium solubility
metric: solubility thermodynamic at 24 h (µg/mL)
Give bare numbers, in µg/mL.

Item under review: C[C@@H](NC(=O)N1C(=O)[C@H](Cc2ccnc(N)c2)[C@H]1C(=O)O)C1CCCCC1 . Reported solubility thermodynamic at 24 h?
6200
